Items are presented alongside their recorded solubility kinetic.
Settings: buffer; pH 7.4; 200.0 µM
Report the figure in µg/mL without appending any unit label.

CC(=O)O/N=C/c1c(NCc2ccccc2)nc2c(C)cccn2c1=O = 25.7
O=C1C2C3C=CC(CC3)C2C(=O)N1c1ccccc1 (stereo not drawn) = 25.9
CCCC#CCN1CCN(C23CC4CC(CC(C4)C2)C3)CC1 = 42.6

Consider the compound shown here: `CN(C)S(=O)(=O)N1CCN(c2ccc([N+](=O)[O-])c(NC3CC3)c2)CC1` What is its recorded solubility kinetic?
0.6

Consider the compound shown here: CC(OC(=O)C1=COCCO1)C(=O)NC1(C#N)CCCCC1 (stereo not drawn) What is its recorded solubility kinetic?
45.7

Consider the compound shown here: `O=C(CSc1ccc([N+](=O)[O-])cn1)Nc1ccc(N2CCOCC2)cc1` What is its recorded solubility kinetic?
0.9

###

Conditions: buffer; pH 7.4; 200.0 µM
VALUE TYPE: solubility kinetic

CCCCCOc1ccc(C(=O)CCC(=O)NC(C)c2ccc(S(N)(=O)=O)cc2)cc1 (centres undefined) = 10.9 µg/mL

Attention now turns to another entry.
Consider the compound shown here: `Cc1cc(C)c(S(=O)(=O)Cc2ccccc2)c(OC(C)C)n1` What is its recorded solubility kinetic?
26 µg/mL

###

Settings: buffer; pH 7.4; 200.0 µM
VALUE TYPE: solubility kinetic

Sample answers from the record:
CCCCn1c(=O)c(C(=O)Nc2ccccc2C)c(O)c2ccccc21 = < 0.4 µg/mL
CC(C)(C)NC(=O)c1ccc2c(c1)C(=O)N(Cc1ccco1)C2=O = 46 µg/mL
Cc1ccc(C)c(CSCC(=O)NCc2cccs2)c1 = 41.8 µg/mL
CCCc1cc(=O)[nH]c(SCC(=O)Nc2ccc3ccccc3c2)n1 = 2.6 µg/mL
CC(Sc1nc2ncc(Cl)cc2[nH]1)C(=O)Nc1ccc(C(N)=O)cc1 (stereo unspecified) = 9.3 µg/mL

Attention now turns to another entry.
Consider the compound shown here: `CCOC(=O)C1CCN(CCC(=O)Nc2ccc(C)c(C)c2)CC1` What is its recorded solubility kinetic?
> 49.9 µg/mL

###

Conditions: buffer; pH 7.4; 200.0 µM
VALUE TYPE: solubility kinetic (µg/mL)
Report the figure in µg/mL without appending any unit label.

Sample answers from the record:
O/N=C1\CCCc2ccc3ccccc3c21 = 4.5
CCCCCCCc1c(O)nc(SCC(=O)O)[nH]c1=O = 43.9
C=CCOn1c(=O)c(-c2ccc(Cl)cc2)[n+]([O-])c2ccccc21 = 0.8

Consider the molecule shown here: `CCCc1nc(-c2cc3cc(C)ccc3[nH]c2=O)no1` What is its recorded solubility kinetic?
15

Consider the molecule shown here: `CCOC(=O)c1cnc2c(F)ccc(F)c2c1Sc1ccccc1` What is its recorded solubility kinetic?
5.7

Consider the molecule shown here: CCC(C)c1ccc(NC(=O)C2CC3CCC2C3)cc1 (configuration not stated) What is its recorded solubility kinetic?
1.3

Consider the molecule shown here: `Nc1c(C(=O)OCC(=O)NCc2ccccc2)[nH]c(=O)[nH]c1=O` What is its recorded solubility kinetic?
28.9

Consider the molecule shown here: `C=CCc1ccc(OCCCNC2CCCC2)c(OC)c1` What is its recorded solubility kinetic?
35.6

###

Conditions: buffer; pH 7.4; 200.0 µM
Items are presented alongside their recorded log10 of solubility kinetic.
Scale: log10; quantity: solubility kinetic; unit before log: µg/mL

Sample answers from the record:
Cn1c(=O)n(C)c2cc(S(=O)(=O)Nc3ccc(F)cc3)ccc21 = 1.53
Cc1cc(C)cc(NC(=O)Nc2ccc(N3CCCCC3)cc2)c1 = -0.52
O=[N+]([O-])c1ccc(NC2CCCC2)c2ccncc12 = 0.48
Cc1ccc(C)n1-c1ccc(-c2ccnc(N)n2)cc1 = 1.35
O=C(Nc1ccccc1C(F)(F)F)c1cnccn1 = 1.33

Attention now turns to another entry.
Consider the molecule shown here: CC(=O)c1ccc(OCC(O)CNCc2ccc3c(c2)OCO3)cc1 (configuration not stated) What is its recorded log10 of solubility kinetic?
1.66

These entries and their values trace back to PubChem BioAssay AID1996.
